List of pIC50 values.
target: human P2X3 receptor (Homo sapiens (Human), UniProt P56373); test: Evaluation of human P2X3 receptor inhibitory activity (Fluo-3 calcium fluorescence, FDSS 3000, ATP stimulation); format: cell-based; conditions: human P2X3 receptor, Test Example 1;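 note: stimulus was 50 nM ATP with fluorescence followed for 3 min, and the response per well was peak post-ATP fluorescence divided by the reading at measurement start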
Sequence (P56373 whole entry): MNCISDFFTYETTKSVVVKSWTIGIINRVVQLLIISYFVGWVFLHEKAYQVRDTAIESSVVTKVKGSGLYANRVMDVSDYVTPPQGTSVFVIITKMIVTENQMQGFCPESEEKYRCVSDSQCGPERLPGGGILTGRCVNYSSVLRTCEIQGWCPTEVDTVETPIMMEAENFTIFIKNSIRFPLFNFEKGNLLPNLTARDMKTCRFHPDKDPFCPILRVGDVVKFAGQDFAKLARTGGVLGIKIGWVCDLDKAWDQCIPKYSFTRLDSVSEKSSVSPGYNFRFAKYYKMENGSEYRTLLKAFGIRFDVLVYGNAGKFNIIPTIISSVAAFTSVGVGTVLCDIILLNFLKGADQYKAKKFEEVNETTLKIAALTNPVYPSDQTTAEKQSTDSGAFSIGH
Quick note: pIC50 values are minus log10 of concentrations in mol/L.

| Structure | pIC50 |
| --- | --- |
| CCn1c(=O)[nH]/c(=N\c2ccc(Oc3nc(C(=O)O)cs3)cc2)n(C[C@H]2CC[C@H](C)CC2)c1=O | 8.40 |
| COC(=O)[C@@H](C)Cn1c(=O)[nH]/c(=N\c2cnc(OC3CCC3)c(C)c2)n(Cc2ccc(Cl)cc2)c1=O | 7.70 |

Could you tell me which pIC50 is on file for "CNC(=O)[C@@H](C)n1c(=O)[nH]/c(=N\c2ccc(Oc3ccon3)cc2)n(Cc2ccc(Cl)cc2)c1=O" ? 6.98

Query: pIC50; subject: "CCOC(=O)Cn1c(=O)[nH]/c(=N\c2ccc(Oc3ncccn3)cc2)n(Cc2ccc(Cl)cc2)c1=O" 8.15

Data provenance: patent US9718790B2
